- Test system: carrageenan-induced edema
- assay.name: Inhibitory effect on carrageenan-induced edema
- Format: in vivo, Wistar male rats
- cond: Rattus norvegicus, po, 1 h, read-out: ED50 p.o.
- Method: Five Wistar male rats weighing about 150 g. were used as one group. A 1% dispersion of carrageenan was injected intracutaneously into the foot pad of the right hind foot in a dose of 0.1 ml./rat. The compounds to be tested were orally administered to the rats fasted for 15 hours one hour before the carrageenan injection, or intravenously administered 2 hours […] the carrageenan injection. […]
quantity.kind: log10 ED50 (log10 of the value in mg/kg)
// stored as log10 of ED50 expressed in mg/kg

Solved cases (3 shown):
> print(dat)
                                   compound               study.target  quantity.kind  recorded.number
1  COc1ccc2c(c1)c(CC(=O)O)c(C)n2C(=O)c1ccc(Cl)cc1 [indomethacin, reference compound]  carrageenan-induced edema     log10 ED50             0.74
2  CC(C)=CCCC(C)=CC(=O)OCCOC(=O)C(C)c1ccc(-c2ccccc2)c(F)c1 (centres unmarked) [Compound No. 13]  carrageenan-induced edema     log10 ED50            -0.05
3  CC(C(=O)OCOC(=O)C(C)(C)C)c1ccc(-c2ccccc2)c(F)c1 (centres unmarked) [Compound No. 7]  carrageenan-induced edema     log10 ED50            -0.22

Enquiry: Recorded log10 ED50 for CC(C(=O)O)c1ccc(-c2ccccc2)c(F)c1 (centres unmarked) [FP, 2-(2-fluoro-4-biphenylyl)propionic acid, reference compound] , please?
Return: -0.10

Enquiry: Next: CC(=O)OCCOC(=O)C(C)c1ccc(-c2ccccc2)c(F)c1 (centres unmarked) [Compound No. 8]
Return: -0.15

Enquiry: Next: CC(=O)OCOC(=O)C(C)c1ccc(-c2ccccc2)c(F)c1 (centres unmarked) [Compound No. 1]
Return: -0.30

Enquiry: Next: CC(C)=CC(=O)OCOC(=O)C(C)c1ccc(-c2ccccc2)c(F)c1 (centres unmarked) [Compound No. 5]
Return: -0.30

Enquiry: Next: CC(C)=CC(=O)OCCOC(=O)C(C)c1ccc(-c2ccccc2)c(F)c1 (centres unmarked) [Compound No. 11]
Return: 0.00

* * *

- assay.name: Acute toxicity
- Set-up: species or system male SLC-ddY mice
- cond: mouse, in vivo, po, Table 5; mice, orally, observation for 2 weeks
The entries below are paired with their reported LD50 at 336 h.
Kindly provide the numeric value in mg/kg only, without the unit symbol.

> print(dat)
                                   molecule  quantity.kind  recorded.number
1  CC=CC=CC(=O)OCCOC(=O)C(C)c1ccc(-c2ccccc2)c(F)c1 (stereo not shown)  LD50 at 336 h              750
2  CCC(=O)OCOC(=O)C(C)c1ccc(-c2ccccc2)c(F)c1 (stereo not shown)  LD50 at 336 h              750
3  CC(C)=CC(=O)OCOC(=O)C(C)c1ccc(-c2ccccc2)c(F)c1 (stereo not shown)  LD50 at 336 h              900
4  CC(C)=CCCC(C)=CC(=O)OCCOC(=O)C(C)c1ccc(-c2ccccc2)c(F)c1 (stereo not shown)  LD50 at 336 h              750
5  CC(=O)OCOC(=O)C(C)c1ccc(-c2ccccc2)c(F)c1 (stereo not shown)  LD50 at 336 h              880

Turning now to a further molecule:
Enquiry: Recorded LD50 at 336 h for CC(C(=O)OCOC(=O)C(C)(C)C)c1ccc(-c2ccccc2)c(F)c1 (stereo not shown) , please?
Return: 840
